All figures here come from ChEMBL document CHEMBL1147690.

Target: Interstitial collagenase (Homo sapiens, UniProt P03956)
Sequence (P03956 whole entry): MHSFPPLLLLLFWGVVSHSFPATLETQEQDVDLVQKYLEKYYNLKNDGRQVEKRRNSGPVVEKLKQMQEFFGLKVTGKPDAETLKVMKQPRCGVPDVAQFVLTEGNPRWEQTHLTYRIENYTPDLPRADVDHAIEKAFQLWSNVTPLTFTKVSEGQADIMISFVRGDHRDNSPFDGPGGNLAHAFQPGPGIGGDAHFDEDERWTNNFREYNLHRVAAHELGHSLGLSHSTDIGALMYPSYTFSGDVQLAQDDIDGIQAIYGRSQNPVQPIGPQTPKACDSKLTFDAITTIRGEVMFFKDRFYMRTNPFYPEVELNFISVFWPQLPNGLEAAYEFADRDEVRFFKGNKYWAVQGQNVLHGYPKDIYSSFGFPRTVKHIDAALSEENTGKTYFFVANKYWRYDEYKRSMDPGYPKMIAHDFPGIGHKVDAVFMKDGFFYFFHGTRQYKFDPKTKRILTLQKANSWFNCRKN
Assay: Binding affinity to recombinant MMP1
Recorded measurements of pKi, one per entry
Convention used: pKi is expressed as -log10 of the molar concentration.

As a guide, the following entries are already answered.
INSERT INTO results (molecule, test_result) VALUES
  ('COc1ccc([C@@H](C(=O)N2CCCCC2)[C@H](CO)C(=O)NO)cc1', 6.67),
  ('CNC(=O)[C@@H](NC(=O)[C@H](c1ccc(OC)cc1)[C@H](CN1C(=O)N(C)C(C)(C)C1=O)C(=O)NO)C(C)(C)C', 9.15),
  ('CNC(=O)[C@@H]1CCCCN1C(=O)[C@H](c1ccc(OC)cc1)[C@H](CO)C(=O)NO', 7.64),
  ('CC[C@H](C(=O)NO)[C@H](C(=O)N1CCCC[C@H]1C(=O)NC)c1ccc(Cl)cc1', 9.15),
  ('CC[C@H](C(=O)NO)[C@H](C(=O)N1CCCC[C@H]1C(=O)NC)c1ccc(OC)cc1', 7.60);

Q. // fetch pKi given entry CNC(=O)[C@@H](NC(=O)C(c1ccc(OC)cc1)C(CO)C(=O)NO)C(C)(C)C (single isomer, unassigned)
A. 9.00

Q. For the molecule COc1ccc([C@@H](C(=O)N2CCCCC2)[C@H](CN2C(=O)N(C)C(C)(C)C2=O)C(=O)NO)cc1 , give its measured pKi value.
A. 7.08

* * *

experiment: Volume of distribution in rat at 1 mg/kg, iv and 3 mg/kg, po; assay type: ADME, organism-based; conditions: in vivo, read-out: Vdss
Vd values by entry
Please state the value followed by its unit.

INSERT INTO results (molecule, test_result) VALUES
  ('CC[C@H](C(=O)NO)[C@H](C(=O)N1CCCC[C@H]1C(=O)NC)c1ccc(Cl)cc1', '16.7 L/kg'),
  ('CNC(=O)[C@@H]1CCCCN1C(=O)[C@H](c1ccc(OC)cc1)[C@H](CO)C(=O)NO', '1.06 L/kg');

Next:
Q. Provide one value: measured Vd of CNC(=O)[C@@H](NC(=O)C(c1ccc(OC)cc1)C(CO)C(=O)NO)C(C)(C)C (single isomer, unassigned)
A. 0.34 L/kg

* * *

assay: Oral bioavailability in rat at 1 mg/kg, iv and 3 mg/kg, po; format: ADME, organism-based; details: in vivo
readout name: bioavailability (%)
Give just the numeric value; % need not be written.

Below: 2 compounds and their reported bioavailability.
INSERT INTO measurements (compound, readout_name, test_result) VALUES
  ('CNC(=O)[C@@H](NC(=O)C(c1ccc(OC)cc1)C(CO)C(=O)NO)C(C)(C)C (single isomer, unassigned)', 'bioavailability', 3.2),
  ('CC[C@H](C(=O)NO)[C@H](C(=O)N1CCCC[C@H]1C(=O)NC)c1ccc(Cl)cc1', 'bioavailability', 47.1);

// switching to the query compound
Q. Please give the documented bioavailability of CNC(=O)[C@@H]1CCCCN1C(=O)[C@H](c1ccc(OC)cc1)[C@H](CO)C(=O)NO
A. 8.4

* * *

biological target: Stromelysin-1 (Homo sapiens, UniProt P08254); experiment: Binding affinity to recombinant MMP3
Sequence (P08254 whole entry): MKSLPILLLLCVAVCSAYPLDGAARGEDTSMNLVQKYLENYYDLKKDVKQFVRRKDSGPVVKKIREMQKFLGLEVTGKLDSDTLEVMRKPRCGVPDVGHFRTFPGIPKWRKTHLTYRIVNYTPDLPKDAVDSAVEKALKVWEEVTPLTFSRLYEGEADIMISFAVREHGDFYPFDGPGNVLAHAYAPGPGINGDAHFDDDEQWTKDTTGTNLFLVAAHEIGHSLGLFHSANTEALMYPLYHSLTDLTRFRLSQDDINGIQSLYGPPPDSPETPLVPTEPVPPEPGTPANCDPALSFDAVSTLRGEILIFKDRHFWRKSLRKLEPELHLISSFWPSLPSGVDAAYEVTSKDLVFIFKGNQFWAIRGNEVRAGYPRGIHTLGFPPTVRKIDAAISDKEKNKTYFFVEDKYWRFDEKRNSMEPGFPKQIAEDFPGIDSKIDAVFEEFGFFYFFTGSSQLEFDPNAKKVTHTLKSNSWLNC
# reported Ki; entries follow

INSERT INTO measurements (compound, readout_name, test_result) VALUES
  ('CNC(=O)[C@@H](NC(=O)[C@H](c1ccc(OC)cc1)[C@H](CN1C(=O)N(C)C(C)(C)C1=O)C(=O)NO)C(C)(C)C', 'Ki', '12 nM'),
  ('COc1ccc([C@@H](C(=O)N2CCCCC2)[C@H](CO)C(=O)NO)cc1', 'Ki', '300 nM'),
  ('COc1ccc([C@@H](C(=O)N2CCCCC2)[C@H](CN2C(=O)N(C)C(C)(C)C2=O)C(=O)NO)cc1', 'Ki', '187 nM');

// below: Ki requested for another molecule
Q. Look up and report measured Ki for this entry: CC[C@H](C(=O)NO)[C@H](C(=O)N1CCCC[C@H]1C(=O)NC)c1ccc(OC)cc1
A. 11 nM

* * *

molecular target: Collagenase 3 (Homo sapiens); assay: Binding affinity to recombinant MMP13
// reported Ki per item
Please reply with the bare figure in nM and do not write the unit itself.

As a guide, the following entries are already answered.
INSERT INTO results (compound, system, test_result) VALUES
  ('COc1ccc([C@@H](C(=O)N2CCCCC2)[C@H](CN2C(=O)N(C)C(C)(C)C2=O)C(=O)NO)cc1', 'Collagenase 3 (Homo sapiens)', 19),
  ('CC[C@H](C(=O)NO)[C@H](C(=O)N1CCCC[C@H]1C(=O)NC)c1ccc(OC)cc1', 'Collagenase 3 (Homo sapiens)', 7),
  ('CC[C@H](C(=O)NO)[C@H](C(=O)N1CCCC[C@H]1C(=O)NC)c1ccc(Cl)cc1', 'Collagenase 3 (Homo sapiens)', 2);

Q. Tell us which Ki value is on record for CNC(=O)[C@@H]1CCCCN1C(=O)[C@H](c1ccc(OC)cc1)[C@H](CO)C(=O)NO
A. 10

Q. Please give the documented Ki of CNC(=O)[C@@H](NC(=O)[C@H](c1ccc(OC)cc1)[C@H](CN1C(=O)N(C)C(C)(C)C1=O)C(=O)NO)C(C)(C)C
A. 3

Q. For the compound CNC(=O)[C@@H](NC(=O)C(c1ccc(OC)cc1)C(CO)C(=O)NO)C(C)(C)C (single isomer, unassigned) , give its reported Ki.
A. 0.5

Q. Please report the measured Ki for COc1ccc([C@@H](C(=O)N2CCCCC2)[C@H](CO)C(=O)NO)cc1
A. 55

* * *

target: Disintegrin and metalloproteinase domain-containing protein 17 (Homo sapiens, UniProt P78536); test: Binding affinity to recombinant TACE
Sequence (P78536 whole entry, the tested form may be a part): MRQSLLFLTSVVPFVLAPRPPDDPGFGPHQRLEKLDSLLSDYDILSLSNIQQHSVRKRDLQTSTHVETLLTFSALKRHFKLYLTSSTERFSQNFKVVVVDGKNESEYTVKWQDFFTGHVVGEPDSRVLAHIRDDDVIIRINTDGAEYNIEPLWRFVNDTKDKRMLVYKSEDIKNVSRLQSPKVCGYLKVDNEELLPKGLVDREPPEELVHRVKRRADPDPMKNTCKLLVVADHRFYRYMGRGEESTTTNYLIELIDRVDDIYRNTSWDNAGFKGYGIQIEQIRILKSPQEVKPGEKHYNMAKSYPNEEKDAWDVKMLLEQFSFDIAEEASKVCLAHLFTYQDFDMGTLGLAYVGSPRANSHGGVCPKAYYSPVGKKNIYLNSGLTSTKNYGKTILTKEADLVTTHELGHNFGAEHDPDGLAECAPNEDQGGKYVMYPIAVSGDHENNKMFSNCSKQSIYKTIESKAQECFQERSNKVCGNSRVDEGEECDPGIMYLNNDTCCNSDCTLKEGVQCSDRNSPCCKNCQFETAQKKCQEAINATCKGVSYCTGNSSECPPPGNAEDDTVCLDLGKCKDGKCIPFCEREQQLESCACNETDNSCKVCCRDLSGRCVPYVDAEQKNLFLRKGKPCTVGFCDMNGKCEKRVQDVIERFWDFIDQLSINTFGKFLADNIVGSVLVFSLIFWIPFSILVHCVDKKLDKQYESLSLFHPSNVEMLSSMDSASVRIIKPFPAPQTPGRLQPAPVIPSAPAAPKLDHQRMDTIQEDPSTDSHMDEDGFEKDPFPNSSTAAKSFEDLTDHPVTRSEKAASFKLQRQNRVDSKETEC
pKi: −log10 of the molar value.
Binary call on pKi: YES from 8 upward, NO beneath that.

Would you please look over these solved cases?
INSERT INTO results (compound, group_label) VALUES
  ('COc1ccc([C@@H](C(=O)N2CCCCC2)[C@H](CO)C(=O)NO)cc1', 'NO'),
  ('CNC(=O)[C@@H](NC(=O)[C@H](c1ccc(OC)cc1)[C@H](CN1C(=O)N(C)C(C)(C)C1=O)C(=O)NO)C(C)(C)C', 'NO'),
  ('COc1ccc([C@@H](C(=O)N2CCCCC2)[C@H](CN2C(=O)N(C)C(C)(C)C2=O)C(=O)NO)cc1', 'NO'),
  ('CN1C(=O)N(C[C@H](C(=O)NO)[C@@H](CC2CCCC2)C(=O)N2CCCCC2)C(=O)C1(C)C', 'NO');

# evaluate next
Q. Evaluate CC[C@H](C(=O)NO)[C@H](C(=O)N1CCCC[C@H]1C(=O)NC)c1ccc(Cl)cc1 : pKi at minimum 8?
A. YES

* * *

biological target: Disintegrin and metalloproteinase domain-containing protein 17 (Homo sapiens, UniProt P78536); test: Inhibition of LPS/interferon gamma-stimulated TNFalpha release from HPBMC
readout name: IC50 (nM)
All answers are understood in nM, so give the number only.

Worked cases, IC50 given:
INSERT INTO results (compound, test_result) VALUES
  ('CC[C@H](C(=O)NO)[C@H](C(=O)N1CCCC[C@H]1C(=O)NC)c1ccc(Cl)cc1', 316),
  ('CNC(=O)[C@@H](NC(=O)C(c1ccc(OC)cc1)C(CO)C(=O)NO)C(C)(C)C (single isomer, unassigned)', 48),
  ('CNC(=O)[C@@H](NC(=O)[C@H](c1ccc(OC)cc1)[C@H](CN1C(=O)N(C)C(C)(C)C1=O)C(=O)NO)C(C)(C)C', 484);

Proceed to the following item.
Q. Please list IC50 recorded for the compound CC[C@H](C(=O)NO)[C@H](C(=O)N1CCCC[C@H]1C(=O)NC)c1ccc(OC)cc1
A. 836
